// data source = ChEMBL document CHEMBL3414546

target: Coagulation factor X (Homo sapiens); assay: Inhibition of F10a in human plasma assessed as doubling of activated partial thromboplastin time
Sequence (P00742 41-179 limits assumed): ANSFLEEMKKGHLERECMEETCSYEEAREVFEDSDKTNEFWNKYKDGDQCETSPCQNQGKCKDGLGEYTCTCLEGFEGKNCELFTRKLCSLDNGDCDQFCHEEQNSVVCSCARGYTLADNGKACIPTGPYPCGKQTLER
Sequence (P00742 235-488 limits assumed): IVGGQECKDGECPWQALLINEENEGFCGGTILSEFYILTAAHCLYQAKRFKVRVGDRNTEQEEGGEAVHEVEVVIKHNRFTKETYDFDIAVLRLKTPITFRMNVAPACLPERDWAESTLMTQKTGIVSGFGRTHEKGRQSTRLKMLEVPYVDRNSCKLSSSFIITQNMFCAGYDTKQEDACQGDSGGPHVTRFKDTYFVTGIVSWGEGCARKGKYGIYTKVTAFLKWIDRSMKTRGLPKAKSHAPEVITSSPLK
pIC50: −log10 of the molar value.
MEASUREMENT TYPE: pIC50

- O=C(NC[C@H]1CN(c2ccc(-c3nc(CN4CCOCC4)cs3)cc2)C(=O)O1)c1ccc(Cl)s1: 5.42

A = CN(C)Cc1cccn1-c1ccc(N2C[C@H](CNC(=O)c3ccc(Cl)s3)OC2=O)cc1F
B = CN1CCN(Cc2cccn2-c2ccc(N3C[C@H](CNC(=O)c4ccc(Cl)s4)OC3=O)cc2)CC1
C = CC1CCN(Cc2cc3ccccc3n2-c2ccc(N3C[C@H](CNC(=O)c4ccc(Cl)s4)OC3=O)cc2)CC1
D = CCNCc1csc(-c2ccc(N3C[C@H](CNC(=O)c4ccc(Cl)s4)OC3=O)cc2)n1
**Query** # rank by pIC50, ascending (min first) Response format: the labels, sorted as the prompt asks.
**Result** C, B, A, D
(C: 4.92, B: 5.40, A: 5.88, D: 6.10)

A = CCN(CC)Cc1cc2ccccc2n1-c1ccc(N2C[C@H](CNC(=O)c3ccc(Cl)s3)OC2=O)cc1
B = O=C(NC[C@H]1CN(c2ccc(-c3nc(CN4CCCC4)cs3)cc2)C(=O)O1)c1ccc(Cl)s1
C = CN(C)Cc1csc(-c2ccc(N3C[C@H](CNC(=O)c4ccc(Cl)s4)OC3=O)cc2)n1
**Query** # rank by pIC50, ascending (min first) Response format: the labels, sorted as the prompt asks.
**Result** A, B, C
(A: 5.26, B: 5.57, C: 6.01)

a = CN1CCN(Cc2csc(-c3ccc(N4C[C@H](CNC(=O)c5ccc(Cl)s5)OC4=O)cc3)n2)CC1
b = O=C(NC[C@H]1CN(c2ccc(-n3cccc3CN3CCCC3)cc2)C(=O)O1)c1ccc(Cl)s1
c = CCN(CC)Cc1csc(-c2ccc(N3C[C@H](CNC(=O)c4ccc(Cl)s4)OC3=O)cc2)n1
**Query** # rank by pIC50, ascending (min first) Response format: the labels, sorted as the prompt asks.
**Result** a, b, c
(a: 5.39, b: 5.77, c: 6.09)

* * *

target: Coagulation factor X (Oryctolagus cuniculus, UniProt O19045); test: Inhibition of F10a in rabbit plasma assessed as doubling of activated partial thromboplastin time
Sequence (O19045 41-180 limits assumed): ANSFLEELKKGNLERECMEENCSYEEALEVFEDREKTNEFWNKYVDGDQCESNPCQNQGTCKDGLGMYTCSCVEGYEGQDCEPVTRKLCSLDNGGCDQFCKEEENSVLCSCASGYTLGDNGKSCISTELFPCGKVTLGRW
Sequence (O19045 233-490 limits assumed): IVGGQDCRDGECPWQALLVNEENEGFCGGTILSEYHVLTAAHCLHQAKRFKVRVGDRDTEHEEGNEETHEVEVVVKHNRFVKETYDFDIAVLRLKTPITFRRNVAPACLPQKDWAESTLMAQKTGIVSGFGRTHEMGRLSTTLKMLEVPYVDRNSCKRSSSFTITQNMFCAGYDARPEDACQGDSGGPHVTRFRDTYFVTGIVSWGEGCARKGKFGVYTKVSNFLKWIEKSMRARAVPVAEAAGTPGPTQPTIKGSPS
MEASUREMENT TYPE: IC50 (µM)

Worked examples, 4 molecules total:
* CC1CCN(Cc2cc3ccccc3n2-c2ccc(N3C[C@H](CNC(=O)c4ccc(Cl)s4)OC3=O)cc2)CC1 | 13.1
* O=C(NC[C@H]1CN(c2ccc(-c3nc(CN4CCCCC4)cs3)cc2)C(=O)O1)c1ccc(Cl)s1 | 3.46
* CC1CCN(Cc2csc(-c3ccc(N4C[C@H](CNC(=O)c5ccc(Cl)s5)OC4=O)cc3)n2)CC1 | 4.02
* O=C(NC[C@H]1CN(c2cc(F)c(-n3cccc3CN3CCCC3)c(F)c2)C(=O)O1)c1ccc(Cl)s1 | 3.67

1 = O=C(NC[C@H]1CN(c2ccc(-n3cccc3CN3CCC3)cc2)C(=O)O1)c1ccc(Cl)s1
2 = CCN(CC)Cc1cccn1-c1ccc(N2C[C@H](CNC(=O)c3ccc(Cl)s3)OC2=O)cc1
3 = O=C(NC[C@H]1CN(c2ccc(-n3cccc3CN3CCOCC3)cc2)C(=O)O1)c1ccc(Cl)s1
4 = CN(C)Cc1cc2ccccc2n1-c1ccc(N2C[C@H](CNC(=O)c3ccc(Cl)s3)OC2=O)cc1
**Query** # rank by IC50, ascending (min first) Response format: the labels, sorted as the prompt asks.
**Result** 2, 1, 3, 4
(2: 0.75 µM, 1: 1.52 µM, 3: 3.52 µM, 4: 6.23 µM)

a = O=C(NC[C@H]1CN(c2ccc(-c3nc(CN4CCOCC4)cs3)cc2)C(=O)O1)c1ccc(Cl)s1
b = CCN(CC)Cc1csc(-c2ccc(N3C[C@H](CNC(=O)c4ccc(Cl)s4)OC3=O)cc2)n1
**Query** Field: lower IC50 | Options: a / b Output the label that corresponds to your choice.
**Result** b
